target entity: human IL-23R (Homo sapiens)
Sequence (Q5VWK5 22-629): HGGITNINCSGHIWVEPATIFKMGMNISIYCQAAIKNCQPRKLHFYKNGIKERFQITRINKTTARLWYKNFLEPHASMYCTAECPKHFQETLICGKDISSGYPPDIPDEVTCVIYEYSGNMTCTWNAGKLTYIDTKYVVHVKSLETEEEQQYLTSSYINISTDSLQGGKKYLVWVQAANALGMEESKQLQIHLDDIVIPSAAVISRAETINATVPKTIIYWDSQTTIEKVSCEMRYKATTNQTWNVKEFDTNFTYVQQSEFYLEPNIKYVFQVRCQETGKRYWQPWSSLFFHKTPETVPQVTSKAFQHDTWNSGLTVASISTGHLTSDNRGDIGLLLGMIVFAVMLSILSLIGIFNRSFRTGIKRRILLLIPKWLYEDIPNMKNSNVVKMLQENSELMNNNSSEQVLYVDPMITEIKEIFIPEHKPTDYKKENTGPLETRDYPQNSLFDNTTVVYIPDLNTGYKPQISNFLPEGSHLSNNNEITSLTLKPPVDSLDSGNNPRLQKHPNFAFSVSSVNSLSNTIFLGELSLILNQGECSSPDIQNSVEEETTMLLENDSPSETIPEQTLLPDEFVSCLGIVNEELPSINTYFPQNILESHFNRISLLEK
procedure summary: biochemical
Where a SMILES comes first, the peptide text is derived from it. Bridges are numbered along the chain shown (N, C = ends). [ ]: non-standard residue; d: D form. 2Nal = N[C@@H](Cc1ccc2ccccc2c1)C(=O)O; AEF = NCCOc1ccc(C[C@H](N)C(=O)O)cc1; 3Pal = N[C@@H](Cc1cccnc1)C(=O)O; αMeL = CC(C)C[C@](C)(N)C(=O)O; Dab = NCC[C@H](N)C(=O)O
endpoint label: % displacement (hIL-23R NIuc) (%)
Give just the number in %; leave the unit off.

Give human IL-23R (Homo sapiens) % displacement (hIL-23R NIuc) for CNC(=O)[C@H](Cc1cccnc1)NC(=O)[C@H](CCN)NC(=O)[C@@H]1CCCCNC(=O)CC[C@@H]2NC(=O)CC[C@H](NC(=O)[C@H](CCC(N)=O)NC(=O)[C@H](Cc3c[nH]c4ccccc34)NC(=O)[C@H]([C@@H](C)O)NC2=O)C(=O)N[C@@H](Cc2ccc(OCCN)cc2)C(=O)N[C@@H](Cc2ccc3ccccc3c2)C(=O)N[C@@](C)(CC(C)C)C(=O)N1 [Compound 39] (ETWQE[AEF][2Nal][αMeL]K[Dab][3Pal]-NHMe; lactam 1-9, N-5)
98
